- test_target: human DLL3 endogenously expressed on SHP77 and NCI-H82 cells (human) (UniProt Q9NYJ7)
- Sequence (Q9NYJ7 27-618): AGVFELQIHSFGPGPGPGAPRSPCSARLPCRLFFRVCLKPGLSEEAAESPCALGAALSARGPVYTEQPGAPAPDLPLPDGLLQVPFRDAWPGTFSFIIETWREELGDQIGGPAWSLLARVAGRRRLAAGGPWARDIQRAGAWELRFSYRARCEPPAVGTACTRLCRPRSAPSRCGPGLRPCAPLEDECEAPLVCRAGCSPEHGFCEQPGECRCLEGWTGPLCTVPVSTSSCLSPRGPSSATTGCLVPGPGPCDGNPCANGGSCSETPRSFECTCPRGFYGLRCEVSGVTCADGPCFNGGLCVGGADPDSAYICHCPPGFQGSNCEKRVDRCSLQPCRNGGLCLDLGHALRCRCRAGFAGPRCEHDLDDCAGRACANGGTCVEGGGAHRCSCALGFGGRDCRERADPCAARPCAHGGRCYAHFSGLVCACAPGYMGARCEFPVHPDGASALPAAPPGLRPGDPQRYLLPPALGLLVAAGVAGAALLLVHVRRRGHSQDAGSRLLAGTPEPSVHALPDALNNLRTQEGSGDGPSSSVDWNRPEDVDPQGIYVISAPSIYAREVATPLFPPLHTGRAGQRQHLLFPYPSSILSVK
- assay_protocol: FACS SHP77 cells, 0.0064 nM

>  <binder>
mab003 scFv-hFc (Fc fusion, part only; not given: VL-VH linker and human IgG1 Fc, not shown: another chain or arm of the molecule; a dimerising Fc or GST; small tags and cut ends) scFv (part 1 of 2): DVQITQSPSYLAASPGETITINCRASKSISKYLAWYQEKPGKTNKLLIYSGSTLHSGIPSRFSGSGSGTDFTLTISSLEPEDFAIYYCQQHNEYPLTFGGGTKLELK scFv (part 2 of 2): QVQLQQSGTELMKPGASVKLSCKATGYTFTGNWIEWVKQRPGHGLEWIGEILPGTGSTQYNEKFKGKATFTADPSSNTAYMQLSSLTTEDSAIYYCARWGSTVVAYDYWGQGTTLTVSS

>  <MFI / MFI>
197

$$$$
>  <binder>
mab008 scFv-hFc (Fc fusion, not shown: small tags and cut ends; a dimerising Fc or GST) scFv (part 1 of 2): DIVMTQSQKFMSTSVGDRVSITCKASQNVGTAVAWYQQKPGQSPKLLIFSASIRYTGVPDRFTGSGSGTDFTLTISNMQSEDLADYFCQQYSSSPYTFGGGTKLEIK scFv (part 2 of 2): EVQLQQSGPVLVKPGASVKMSCKASGYTFTDYYMNWVKRSHGKSLEWIGIINPYNGGTSYNQKFRGKATLTVDKSSNTAYMELNSLTSEDSAVYYCSRYDYDYDVEGAMDYWGQGTSVTVSS

>  <MFI / MFI>
90

$$$$
>  <binder>
mab007 scFv-hFc (Fc fusion, not shown: small tags and cut ends; a dimerising Fc or GST) scFv (part 1 of 2): DVQITQSPSYLAASPGETITINCRASTSISKYLAWYQERPGKTNKLLIYSGSTLQSGIPSRFRGSGSGTDFTLTISSLEPEDFAMYYCQQHHVYPYTFGGGTKLEIK scFv (part 2 of 2): QVQLQQPGAELVRPGTSVKLSCKASGYTFTSYWMHWVKQRPGQGLEWIGVIDPSDSLANYNQEFKGKATLTVDTSSSTAYMQLSSLTSEDSAVYYCARDSTVVAPMDYWGQGTSVTVSS

>  <MFI / MFI>
135

$$$$

Where do the numbers come from? From patent EP4786492A1.
